Target: MDM2 (Homo sapiens, UniProt Q00987)
Construct: His tag-GB1-TEV site fusion expressed in E. coli BL21; His-GB1 removed by TEV cleavage
Sequence (Q00987 5-125): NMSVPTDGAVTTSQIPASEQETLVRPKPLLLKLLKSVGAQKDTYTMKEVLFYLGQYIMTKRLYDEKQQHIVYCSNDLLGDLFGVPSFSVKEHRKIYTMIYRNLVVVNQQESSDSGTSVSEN
Experiment: ITC, MDM2 titrated into compound, single-site fit
Format: binding
Conditions: 50 mM sodium phosphate pH 6.8, 150 mM NaCl, 5% DMSO, 1 mM TCEP
Result type: Kd
Your reply should be a number followed by the unit it is expressed in.

Lookup: # Kd lookup, item Cc1[nH]c2ccccc2c1C(NS(=O)(=O)c1ccc(Cl)cc1)C(Cl)(Cl)Cl (stereo not shown)
Found: 49.7 µM
